Reported LogP by item:
settings: pH 2.7
Marks after values point to notes of the source that are not given here.
Experimental Readout: LogP

Compound	Experimental Readout	Observed
CC(C)(C)C(O)(Cc1cnc2ccccc2c1)Cn1cncn1 (stereo not drawn)	LogP	1.18^[a]
CC(C)(C)C(O)(Cc1ccnc(Cl)c1)Cn1cncn1 (stereo not drawn)	LogP	1.93^[a]
CC(C)(C)C(O)(Cc1ccnc(Cl)c1F)Cn1cncn1 (stereo not drawn)	LogP	2.16^[a]
CC(C)(C)C(O)(Cc1cccc(Cl)n1)Cn1cncn1 (stereo not drawn)	LogP	2.30^[a]
CC(C)CCC(O)(Cc1ccncc1Cl)Cn1cncn1 (stereo not drawn)	LogP	2.00^[a]
CC(C)(C)C(O)(Cc1nccnc1Cl)Cn1cncn1 (stereo not drawn)	LogP	2.01^[a]
CC(C)(C)C(O)(Cc1cncc(Oc2ccc(Cl)cc2)n1)Cn1cncn1 (stereo not drawn)	LogP	2.98^[a]
CC(C)(C)C(O)(Cc1cc(F)ncc1Cl)Cn1cncn1 (stereo not drawn)	LogP	2.39^[a]
CC(C)(C)C(O)(Cc1cc(Cl)ncc1F)Cn1cncn1 (stereo not drawn)	LogP	2.16^[a]
